Tested on: MALME-3M melanoma
Assay text: NCI tumour cell line growth inhibition, 384-well format; in the data active = GI50 below about 0.43 µM; inactive = the rest
Bench note: report the call from active, inactive

Study these solved cases before continuing.
- Smiles structure: "Cc1cc2c(F)c(Oc3ncnn4cc(OC[C@@H](C)OC(=O)[C@H](C)N)c(C)c34)ccc2[nH]1"
  Label class: "inactive"
- Smiles structure: "O=C(NOCC1CC1)c1ccc(F)c(F)c1Nc1ccc(I)cc1Cl"
  Label class: "active"
- Smiles structure: "Cc1ccc2c(=O)c3cccc(CC(=O)O)c3oc2c1C"
  Label class: "inactive"

Moving on to another compound below.
Query :: What did this assay record as the result for CNC(=O)c1cccc(-c2ccc3c(N4CCOC[C@@H]4C)nc(N4CCOC[C@@H]4C)nc3n2)c1 ?
Result :: active
